# system: T1, Kap104p (yeast (S. cerevisiae), UniProt P38217 1-918)
# T1 construct: Kap104p, yeast homolog of Kapβ2; gene a gift from J. Aitchison, subcloned into pGEX-Tev; also called yeast Karyopherin β2 homolog; source: E. coli Rosetta(DE3)pLysS, purified (glutathione sepharose, TEV cleavage, anion exchange, gel filtration)
# T1 sequence (looked up): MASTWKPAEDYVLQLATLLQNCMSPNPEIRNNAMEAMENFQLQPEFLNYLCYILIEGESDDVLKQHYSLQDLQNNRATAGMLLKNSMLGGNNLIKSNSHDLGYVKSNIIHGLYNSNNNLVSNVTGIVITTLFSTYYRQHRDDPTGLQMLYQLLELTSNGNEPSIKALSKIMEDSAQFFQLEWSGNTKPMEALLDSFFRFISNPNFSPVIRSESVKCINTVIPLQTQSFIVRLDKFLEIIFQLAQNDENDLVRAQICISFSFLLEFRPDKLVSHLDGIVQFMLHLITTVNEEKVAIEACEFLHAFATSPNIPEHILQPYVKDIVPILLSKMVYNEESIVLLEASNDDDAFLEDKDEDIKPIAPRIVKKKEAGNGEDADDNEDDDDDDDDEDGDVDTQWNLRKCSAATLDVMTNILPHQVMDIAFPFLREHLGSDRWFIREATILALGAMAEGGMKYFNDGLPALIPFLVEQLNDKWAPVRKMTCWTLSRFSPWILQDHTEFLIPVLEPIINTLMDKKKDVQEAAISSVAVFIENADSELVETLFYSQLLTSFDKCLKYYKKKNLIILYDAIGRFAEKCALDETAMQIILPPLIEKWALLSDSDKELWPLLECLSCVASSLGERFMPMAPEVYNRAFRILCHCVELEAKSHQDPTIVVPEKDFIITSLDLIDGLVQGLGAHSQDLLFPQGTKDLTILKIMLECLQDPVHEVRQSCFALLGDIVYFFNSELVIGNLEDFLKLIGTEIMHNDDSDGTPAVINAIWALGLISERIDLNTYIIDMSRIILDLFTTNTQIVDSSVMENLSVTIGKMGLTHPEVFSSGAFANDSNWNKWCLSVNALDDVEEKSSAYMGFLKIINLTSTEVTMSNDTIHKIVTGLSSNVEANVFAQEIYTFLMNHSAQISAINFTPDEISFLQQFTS
# experimental.protocol: ITC; 90–350 μM MBP-NLS titrated into 9–35 μM Kap104p in the cell; 20 °C; 20 mM Tris pH 7.5, 100 mM NaCl, 2 mM β-mercaptoethanol, 10% glycerol; 35 injections of 8 μl; single-site model
# particulars: both partners purified
quantity.kind: binding result

>>> result("MBP–Nab2p NLS K216A (domain or fragment, S. cerevisiae, UniProt P32505 201-251, looked up, Nab2p NLS, residues 201-251; source: E. coli BL21(DE3), purified (amylose resin, cation exchange)) DNSQRFTQRGGGAVGANRRGGRGGNRGGRNNNSTRFNPLAKALGMAGESNM")
"binds"
>>> result("MBP–Nab2p NLS L239I (domain or fragment, S. cerevisiae, UniProt P32505 201-251, looked up, Nab2p NLS, residues 201-251; source: E. coli BL21(DE3), purified (amylose resin, cation exchange)) DNSQRFTQRGGGAVGKNRRGGRGGNRGGRNNNSTRFNPIAKALGMAGESNM")
"binds"
>>> result("RDRNDRDRDYNHAAAANHRRNGRGGRGGYNRRNNGYHPYNR (domain or fragment, S. cerevisiae, UniProt Q99383 494-534, looked up, Hrp1p NLS, residues 494-534; source: E. coli BL21(DE3), purified (amylose resin, cation exchange)) [MBP–Hrp1p NLS 506RSGG509/AAAA]")
"binds"
